# Tested on: PPARg:RXRa 30nM:10nM, anti-RXR (NR concentration 30 nM, RXRa partner concentration 10 nM)
# measurement.description: PBM binding z-score (relative to random genomic background probes); higher = stronger binding; sequences stand for … in GC…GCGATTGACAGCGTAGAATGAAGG
assay.metric: PBM binding z-score
Numbers only.

Consider the reported PBM binding z-score for these sequences:
[
  {
    "residues": "CGAACTAGGTCAACAGGACAGTGAAGAGGTTGGA",
    "target.system": "PPARg:RXRa 30nM:10nM, anti-RXR (NR concentration 30 nM, RXRa partner concentration 10 nM)",
    "PBM binding z-score": 4.22
  },
  {
    "residues": "CGAACTAGGTCACCAGGACACTGAAGAGGTTGGA",
    "target.system": "PPARg:RXRa 30nM:10nM, anti-RXR (NR concentration 30 nM, RXRa partner concentration 10 nM)",
    "PBM binding z-score": 4.81
  },
  {
    "residues": "CCTACTGGGCCATTCAGAGGACATTGATCATATG",
    "target.system": "PPARg:RXRa 30nM:10nM, anti-RXR (NR concentration 30 nM, RXRa partner concentration 10 nM)",
    "PBM binding z-score": -0.132
  },
  {
    "residues": "CTATGTAGGTTAAGGGGGTCATTCGGTTTGAAAG",
    "target.system": "PPARg:RXRa 30nM:10nM, anti-RXR (NR concentration 30 nM, RXRa partner concentration 10 nM)",
    "PBM binding z-score": 6.21
  }
]

Now for the sequence whose PBM binding z-score we want.
stdin: I'd like to know its PBM binding z-score. The sequence in question is "ATATGTAGGTTAGGGTCATCCAGAAAGTAGGGAA"
stdout: 4.94
